Attribution: ChEMBL document CHEMBL1141529

Assay read-out Ki; system under study: Melanocortin receptor 4 (Homo sapiens, UniProt P32245).
Sequence (P32245 whole entry): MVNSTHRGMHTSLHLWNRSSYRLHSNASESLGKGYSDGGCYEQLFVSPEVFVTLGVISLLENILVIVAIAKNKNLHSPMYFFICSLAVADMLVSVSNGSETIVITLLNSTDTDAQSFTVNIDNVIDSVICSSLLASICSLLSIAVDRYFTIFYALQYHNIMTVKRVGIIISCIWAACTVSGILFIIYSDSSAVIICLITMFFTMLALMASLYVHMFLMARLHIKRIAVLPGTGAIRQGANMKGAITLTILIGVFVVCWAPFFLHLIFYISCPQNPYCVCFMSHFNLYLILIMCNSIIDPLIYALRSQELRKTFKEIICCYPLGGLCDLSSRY
Give bare numbers, in nM.

Here's what some known entries look like.
molecule: CC(C)C[C@H](N)c1cc(C(F)(F)F)ccc1N1CCN(C(=O)C2(Cc3ccc(Cl)cc3)COC(=O)N2)CC1 (stereo partly drawn)
readout.value: 550
--
molecule: CCOC(=O)N1CC[C@H](c2ccc(Cl)cc2)[C@@H]1C(=O)N1CCN(c2ccc(C)cc2[C@@H](N)C(C)C)CC1 (stereo in doubt; form 2)
readout.value: 11
--
molecule: Cc1ccc(N2CCN(C(=O)[C@H]3[C@@H](c4ccc(Cl)cc4)CCN3C(=O)C(C)(C)C)CC2)c([C@@H](N)C(C)C)c1
readout.value: 7.2
--
molecule: CCOC(=O)N1CC[C@@H](c2ccc(Cl)cc2)[C@H]1C(=O)N1CCN(c2ccc(C)cc2[C@@H](N)C(C)C)CC1
readout.value: 130
--
molecule: CC(C)[C@H](N)c1cccc(F)c1N1CCN(C(=O)C2NCCC2c2ccc(Cl)cc2)CC1 (stereo partly drawn)
readout.value: 110

Batch of 3 molecules: report Ki for each.
1. CC(C)C[C@H](N)c1cc(Cl)ccc1N1CCN(C(=O)C2NCCC2c2ccc(Cl)cc2Cl)CC1 (stereo partly drawn)
2. Cc1ccc(N2CCN(C(=O)[C@@H]3NCC[C@@H]3c3ccc(Cl)cc3)CC2)c([C@@H](N)C(C)C)c1
3. CC(=O)N1CC[C@@H](c2ccc(Cl)cc2)[C@@H]1C(=O)N1CCN(c2ccc(C)cc2[C@@H](N)C(C)C)CC1

1. 190
2. 52
3. 180
